- target.desc: T1, Biotin-labeled human CXCR2 N-terminal extracellular peptide (pepN48) (Homo sapiens, UniProt P25025, biotin label (position not given))
- T1 construct: CXC chemokine receptor 2 (CXCR2, interleukin 8 receptor beta), human, the first 48 residues of the protein; Held on the streptavidin chip by its biotin; also called N-terminal peptide; peptide of extracellular N-terminal domain of human CXCR2
- T1 chain: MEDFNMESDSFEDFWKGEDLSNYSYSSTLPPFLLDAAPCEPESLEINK
- method.description: SPR; biotin-labeled pepN48 immobilised on a streptavidin Series S Sensor Chip SA; Biacore T200; IgG1 antibodies injected as analytes in HBS-EP+ buffer pH 7.4; kinetics fitted globally
- test.context: both partners purified
parameter.measured: Kd (nM)
Numbers only here, please. The scale is nM.

Some solved entries appear below for comparison.
binder	measurement.units	assay.result
abN48-10 (antibody, V domains shown, parent VH in PDB 6KVF; constant region of the human IgG1 heavy chain, from the pFuse heavy-chain vector; as the VL of the light chain of m1; light-chain constant region of the pFuse light-chain vector pfuse2ss-hcll2; Full-length IgG1; source: 293F cells, co-transfected, purified from the medium (HiTrap Protein A)) VH: QVQLVQSGAEVKKPGSSVKVSCKASGGTLSSYAISWVRQAPGQGPEWMGWINPNSGGTNYAQKFQGRVTMTRDTSISTAYMELSRLRPDDTAVYYCASGYCSRFNCKDYWGQGTLVTVSS VL: QAVLTQPSSLSASPGASVSLTCTLRSGINVGAYRIYWYQQKPGSPPQFLLRYKSDSDKQQGSGVPSRFSGSRDASANAGILLISGLRSEDEADYYCAIWHSSAWVFGGGTQLTVL	nM	0.27
abN48-8 (antibody, V domains shown, parent VH in PDB 6KVF; constant region of the human IgG1 heavy chain, from the pFuse heavy-chain vector; as the VL of the light chain of m1; light-chain constant region of the pFuse light-chain vector pfuse2ss-hcll2; Full-length IgG1; source: 293F cells, co-transfected, purified from the medium (HiTrap Protein A)) VH: QVQLVQSGAEVKKPGSSVKVSCKASGGTLSSYAISWVRQAPGQGPEWMGWINPNSGGTNYAQKFQGRVTMTRDTSISTAYMELSRLRPDDTAVYYCASGYCNRTRCYDHWGQGTLVTVSS VL: QAVLTQPSSLSASPGASVSLTCTLRSGINVGAYRIYWYQQKPGSPPQFLLRYKSDSDKQQGSGVPSRFSGSRDASANAGILLISGLRSEDEADYYCAIWHSSAWVFGGGTQLTVL	nM	0.83
abN48-29 (antibody, V domains shown, parent VH in PDB 6KVF; constant region of the human IgG1 heavy chain, from the pFuse heavy-chain vector; as the VL of the light chain of m1; light-chain constant region of the pFuse light-chain vector pfuse2ss-hcll2; Full-length IgG1; source: 293F cells, co-transfected, purified from the medium (HiTrap Protein A)) VH: QVQLVQSGAEVKKPGSSVKVSCKASGGTLSSYAISWVRQAPGQGPEWMGWINPNSGGTNYAQKFQGRVTMTRDTSISTAYMELSRLRPDDTAVYYCASGYCGRARCTSFWGQGTLVTVSS VL: QAVLTQPSSLSASPGASVSLTCTLRSGINVGAYRIYWYQQKPGSPPQFLLRYKSDSDKQQGSGVPSRFSGSRDASANAGILLISGLRSEDEADYYCAIWHSSAWVFGGGTQLTVL	nM	0.13

With those in mind, consider the next binder.
Data request: Value lookup for Kd; key = abN48-28 (antibody, V domains shown, parent VH in PDB 6KVF; constant region of the human IgG1 heavy chain, from the pFuse heavy-chain vector; as the VL of the light chain of m1; light-chain constant region of the pFuse light-chain vector pfuse2ss-hcll2; Full-length IgG1; source: 293F cells, co-transfected, purified from the medium (HiTrap Protein A)) VH: QVQLVQSGAEVKKPGSSVKVSCKASGGTLSSYAISWVRQAPGQGPEWMGWINPNSGGTNYAQKFQGRVTMTRDTSISTAYMELSRLRPDDTAVYYCASGYCSPSGCYVYWGQGTLVTVSS VL: QAVLTQPSSLSASPGASVSLTCTLRSGINVGAYRIYWYQQKPGSPPQFLLRYKSDSDKQQGSGVPSRFSGSRDASANAGILLISGLRSEDEADYYCAIWHSSAWVFGGGTQLTVL
Data returned: 0.65

Value source: paper PMC9496334
